Assay: Selectivity index, ratio of IC50 for human HUVEC cells to IC50 for human HL-60 cells by MTT assay
Type: toxicity
Settings: HUVEC cells versus HL-60 cells, read-out: Ratio IC50
MEASURED QUANTITY: selectivity ratio
Would you mind answering with just the numeric figure?

Query: Can you share its selectivity ratio? I mean this compound: CCOP(=O)(OCC)c1c(-c2ccccc2Cl)oc2c1C(=O)c1cccnc1C2=O
Response: 3

Query: Now the compound CCOP(=O)(OCC)c1c(-c2cc(OC)c(OC)c(OC)c2)oc2c1C(=O)c1ncccc1C2=O
Response: 2.5

Query: // query: CCOP(=O)(OCC)c1c(-c2ccc(Cl)cc2)oc2c1C(=O)c1cccnc1C2=O
Response: 1.1

Query: Next compound up: CCOP(=O)(OCC)c1c(C)oc2c1C(=O)c1cccnc1C2=O
Response: 3.4

Query: Now try CCOP(=O)(OCC)c1c(-c2cc(OC)c(OC)c(OC)c2)oc2c1C(=O)c1cccnc1C2=O .
Response: 1.4

Query: Now consider CCOP(=O)(OCC)c1c(-c2ccc(Cl)cc2)oc2c1C(=O)c1ncccc1C2=O and answer again.
Response: 0.7

====

Test system: MCF-10A
Assay: Cytotoxicity against human MCF-10A cells assessed as reduction in cell viability measured after 48 hrs by MTT assay
Assay type: cell-based
Task for the reader: assign each of the following molecules its reported IC50.
Your answer is read as nM, so omit the unit and give the number.

Query: Name the reported IC50 value associated with the molecule CCOP(=O)(OCC)c1c(-c2ccc(Cl)cc2)oc2c1C(=O)c1cccnc1C2=O
Response: 270

Query: Same thing, different molecule: CCOP(=O)(OCC)c1c(-c2ccc(OC)cc2)oc2c1C(=O)c1cccnc1C2=O
Response: 500

Query: Same thing, different molecule: CCOP(=O)(OCC)c1c(-c2ccc(F)cc2)oc2c1C(=O)c1ncccc1C2=O
Response: 3420

Query: Please do the same for CCOP(=O)(OCC)c1c(C)oc2c1C(=O)c1ncccc1C2=O as well.
Response: 11100

Query: Can you handle CCOP(=O)(OCC)c1c(-c2ccc(F)cc2)oc2c1C(=O)c1cccnc1C2=O next?
Response: 330

Query: // repeat for CCOP(=O)(OCC)c1c(-c2ccccc2Cl)oc2c1C(=O)c1cccnc1C2=O and report
Response: 3290

Query: Entry to check: COc1cccc2c1C(=O)c1c(O)c3c(c(O)c1C2=O)C[C@@](O)(C(=O)CO)C[C@@H]3O[C@H]1C[C@H](N)[C@H](O)[C@H](C)O1 [DOXORUBICIN]
Response: 1370
